target: Cellular tumor antigen p53 (Homo sapiens); assay: Primary qHTS for small molecule compounds that upregulate eGFP-tagged delta133p53alpha (in N-terminal) cells. (AID 2060322); settings: NCI-H358 eGFP-delta133p53alpha fluorescence, 24 h; active compounds read high;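 further: cells pre-induced with doxycycline then dosed without doxycycline; series mostly up to about 56 µM; 0% = DMSO vehicle and 100% = reference activator; nearly all actives have a fitted effect of over 75% in size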
Records with an inconclusive call do not appear.
activation reference
reported_endpoint: activation (%)

1) CCOC(=O)C1=C(O)C(=O)N(Cc2ccccc2)C1
-27.1
2) N#CC1C(=O)Nc2scc(-c3ccc(-c4ccccc4O)cc3)c2C1=O (stereo not given)
17
3) CCCCCC(C)N (stereo not given)
28.8
4) C=C1C(O)C[C@@H]2C(C(=O)O)=CO[C@@H](O[C@@H]3O[C@H](CO)[C@@H](O)[C@H](O)[C@H]3OC(=O)c3ccc(O)cc3)[C@H]12 (stereo not given in full)
9.82
5) C=CCC1=C[C@]2(OC)[C@H](C)[C@@H](c3ccc4c(c3)OCO4)O[C@]2(OC)CC1=O
1.53

Reference source: PubChem BioAssay (NCATS)
